- method_description: Cytotoxicity against mouse MBMDMphi cells after 48 hrs by MTS assay
- Assay type: cell-based
quantity_name: CC50 at 48 h

Exercise: Quick one: CC50 at 48 h for COc1cc(C(c2nnnn2C(C)(C)C)N2CCN(C3=NC(=O)/C(=C/c4ccccc4)S3)CC2)cc(OC)c1OC (configuration not stated) ?
Solution: > 100 µM

Exercise: Entry COc1ccc(C(c2nnnn2C(C)(C)C)N2CCN(C3=NC(=O)/C(=C/c4ccccc4)S3)CC2)cc1 (configuration not stated) has what CC50 at 48 h?
Solution: > 100 µM

Exercise: I have this compound here, CC(C)(C)n1nnnc1C(c1ccc(F)cc1)N1CCN(C2=NC(=O)/C(=C/c3ccccc3)S2)CC1 (configuration not stated) , and I need its recorded CC50 at 48 h.
Solution: > 100 µM

Exercise: Suppose we examine the compound COc1cc(C(c2nnnn2C2CCCCC2)N2CCN(C3=NC(=O)/C(=C/c4ccccc4)S3)CC2)cc(OC)c1OC (configuration not stated) ; what CC50 at 48 h value has been reported?
Solution: > 100 µM

Exercise: Which measured CC50 at 48 h value corresponds to CC(C)c1ccc(C(c2nnnn2C(C)(C)C)N2CCN(C3=NC(=O)/C(=C/c4ccccc4)S3)CC2)cc1 (configuration not stated) ?
Solution: > 100 µM

Exercise: Record request: CC50 at 48 h value, item CC(C)c1ccc(C(c2nnnn2C2CCCCC2)N2CCN(C3=NC(=O)/C(=C/c4ccccc4)S3)CC2)cc1 (configuration not stated)
Solution: > 100 µM

Exercise: Param item = O=C1N=C(N2CCN(C(c3ccccc3Cl)c3nnnn3C3CCCCC3)CC2)S/C1=C\c1ccccc1 (configuration not stated) ; retrieve measured CC50 at 48 h.
Solution: > 100 µM
